Reported inhibition values follow for various compounds
biological target: Furin (Homo sapiens); assay: furin substrate cleavage inhibition retest – biochemical, fluorescence intensity, confirmation (AID 463180); conditions: Recombinant furin, fluorogenic substrate cleavage, at 50 µM, stronger effect = higher value
Enter your answer as a number in %; do not include the unit.

Compound: O=C(Nc1ccccc1)N(CCN1CCOCC1)Cc1ccccc1F
Target: Furin (Homo sapiens)
Units: %
inhibition: -13

Req: Item O=C(Cc1c[nH]c2ccccc12)N1CCc2ccccc21 : provide inhibition
Resp: -24.6

Req: Supply reported inhibition belonging to this compound: CCOC(=O)c1c(/N=C/C2=C(O)CCCC2=O)sc(C)c1C
Resp: -13.1

Req: Answer with the recorded inhibition of CC1(C)CC(=O)C(/C=N/c2ccccn2)=C(O)C1 only.
Resp: 2.22

Req: Give reported inhibition value for COc1ccc(NC(=O)Nc2ncn(Cc3cccc(C(F)(F)F)c3)n2)cc1OC
Resp: -15.8

Req: Return inhibition for the following compound: Cc1ccc2nc(/C(C#N)=C/c3cn[nH]c3-c3ccc(F)cc3)[nH]c2c1
Resp: 8.39

Req: Identify inhibition associated with the compound CC(=O)NC(C)c1nc2ccccc2n1Cc1ccccc1F (centres undefined)
Resp: -16.7

Req: State its inhibition: Cc1cc(Cl)ccc1OCCCC(=O)N1CCOCC1
Resp: -18.9

Req: Specify reported inhibition for the compound shown: Cn1ncc(Cl)c1C(=O)Nc1cccc(Cl)c1
Resp: -11

Req: Answer with reported inhibition of CC1(C)CC(=O)C(C=Nc2ccc(Cl)cn2)=C(O)C1
Resp: -4.84

###

biological target: Furin (Homo sapiens) (UniProt P09958); assay: furin substrate cleavage inhibition retest – biochemical, fluorescence intensity, confirmation (AID 463180); details: Recombinant furin, fluorogenic substrate cleavage, at 50 µM
Sequence (P09958 108-714 limits assumed): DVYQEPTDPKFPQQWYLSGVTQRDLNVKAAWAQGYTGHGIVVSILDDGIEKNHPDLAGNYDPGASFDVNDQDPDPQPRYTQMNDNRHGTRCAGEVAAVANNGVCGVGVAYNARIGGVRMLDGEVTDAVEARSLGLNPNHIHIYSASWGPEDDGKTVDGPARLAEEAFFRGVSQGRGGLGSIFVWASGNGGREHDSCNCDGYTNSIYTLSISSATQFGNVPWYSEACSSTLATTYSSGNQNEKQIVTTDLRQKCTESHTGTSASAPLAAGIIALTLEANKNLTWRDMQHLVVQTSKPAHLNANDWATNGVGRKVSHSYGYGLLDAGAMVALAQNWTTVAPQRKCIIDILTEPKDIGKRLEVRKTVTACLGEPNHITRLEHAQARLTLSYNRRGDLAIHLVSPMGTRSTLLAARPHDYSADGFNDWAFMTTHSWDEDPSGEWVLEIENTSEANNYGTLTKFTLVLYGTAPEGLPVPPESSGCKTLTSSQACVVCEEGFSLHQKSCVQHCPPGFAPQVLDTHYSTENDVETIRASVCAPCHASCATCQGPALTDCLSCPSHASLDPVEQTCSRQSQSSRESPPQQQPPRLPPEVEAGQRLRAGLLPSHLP
Calls of active or inactive are those of the source. The rule behind the calls is not given here.
Returns: one label drawn from yes (1) (active), no (0) (inactive)

Worked examples follow.
Compound: CCCOP(=O)(c1ccc(N(C)C)cc1)C(Nc1ccccc1)c1ccc(N(C)C)cc1 (centres undefined)
Answer label: yes (1)
--
Compound: CC1(C)CC(=O)C(C=Nc2cccnc2)=C(O)C1
Answer label: yes (1)
--
Compound: O=C(NCc1ccccc1)C1COc2ccccc2O1 (centres undefined)
Answer label: no (0)
--
Compound: O=C1CC(N2CCC(c3nc4ccccc4o3)CC2)C(=O)N1Cc1cccs1 (centres undefined)
Answer label: no (0)
--
Compound: COc1nc(C)ccc1-c1noc(-c2ccccn2)n1
Answer label: no (0)
--
Compound: CSc1n[nH]c(NCc2ccc(C)cc2)n1
Answer label: no (0)
--
Compound: CCCCCCN1C=CC=C/C1=C/C=C(C#N)C#N
Answer label: no (0)
--
Compound: CN1CCN(c2ccccc2NC(=O)c2cccc(OCc3ccccc3)c2)CC1
Answer label: no (0)

Proceed to the following item.
Req: How was O=C(COC(=O)c1ccc[nH]c1=O)NCC1CCCO1 (centres undefined) classified in this test?
Resp: no (0)

###

inhibition for assorted compounds
target: Furin (Homo sapiens) (UniProt P09958); experiment: furin substrate cleavage inhibition retest – biochemical, fluorescence intensity, confirmation (AID 463180); details: Recombinant furin, fluorogenic substrate cleavage, at 50 µM, stronger effect = higher value
State the answer as a number, implicitly in %.

Use these answered entries as a reference point.
Compound: COc1cc(NC(=O)c2ccccc2)c(OC)cc1Cl
Target: Furin (Homo sapiens) (UniProt P09958)
Measured metric: inhibition
Data value: -9.8
--
Compound: CCn1c(SCC(=O)Nc2cc(F)ccc2C)nnc1-c1ccccc1O
Target: Furin (Homo sapiens) (UniProt P09958)
Measured metric: inhibition
Data value: -18.5
--
Compound: COC(=O)c1[nH]c2ccccc2c1NC(=O)CN1CCC(C(N)=O)(N2CCCCC2)CC1
Target: Furin (Homo sapiens) (UniProt P09958)
Measured metric: inhibition
Data value: -12.8

Req: Tell me its inhibition given O=C(CN1C(=O)C2C3C=CC(C3)C2C1=O)NCc1ccc2c(c1)OCO2 (stereo unspecified) as the entry.
Resp: -17.4

Req: Identify measured inhibition associated with O=C(c1ccco1)N1CCN(C2CC(=O)N(c3ccc4c(c3)OCO4)C2=O)CC1 (stereo unspecified)
Resp: -17

Req: Return inhibition (reported value) for this compound: CCOC(=O)c1cc(C)sc1/N=C/C1C(=O)CCCC1=O
Resp: -15.3

Req: Look up and report measured inhibition for this entry: Cc1cccc(-n2c(O)c(/C=C/C=Nc3ccccc3)c(=O)[nH]c2=O)c1
Resp: 14.2

Req: Indicate its recorded inhibition; the compound in question is COc1cc(C(=O)Nc2ccc(-c3nnc(-c4ccco4)o3)cc2)cc(OC)c1OC
Resp: -21

Req: State, in one line, measured inhibition of COC(=O)c1ccc(Cn2nc(C)c(Cl)c2C)o1
Resp: -14.9

###

target: Furin (Homo sapiens) (UniProt P09958); assay: furin substrate cleavage inhibition retest – biochemical, fluorescence intensity, confirmation (AID 463180); conditions: Recombinant furin, fluorogenic substrate cleavage, at 50 µM, stronger effect = higher value
Measured metric: inhibition (%)
Numeric only. Scale: %

Example compounds with recorded inhibition:
Compound: COc1ccc(S(=O)(=O)Nc2cc(C(C)C)c(O)cc2C)cc1
inhibition, %: -20.4
//
Compound: COc1ccccc1NC(=O)c1cc(S(=O)(=O)N2CCOCC2)ccc1Cl
inhibition, %: -16.1
//
Compound: Cc1cccc(/C=C2/S/C(=N/N=C3\CC4CCC3(C)C4(C)C)NC2=O)c1 (stereo unspecified)
inhibition, %: 12.3

Req: Consider the compound O=C(CN1C(=O)c2ccccc2C1=O)Nc1sc2c(c1C(=O)NCc1ccco1)CCCC2 . State its measured inhibition.
Resp: -11.4

Req: For the compound CCCCCC(=O)N(CN1C(=O)CCC1=O)c1ccccc1 , give its reported inhibition.
Resp: -20.9

Req: # return recorded inhibition for input CCOC(=O)C(CC)Sc1nc2c(c(=O)[nH]c(=O)n2C)n1C/C=C(/C)Cl (stereo unspecified)
Resp: -19.2

Req: Specify measured inhibition for COc1ccc(S(=O)(=O)NCCC(=O)NCc2ccc(F)cc2)cc1 .
Resp: -20.3

Req: In one line, give reported inhibition of the entry CCCCCc1nnc(NC(=O)C2CCCO2)s1 (stereo unspecified) .
Resp: -22.1

Req: Name the recorded inhibition of the compound listed here: COc1ccccc1C(=O)NC(C)C(c1cccs1)N1CCOCC1 (stereo unspecified)
Resp: -25.9

Req: Input CCOC(=O)c1cc(CC)sc1/N=C/C1=C(O)CCCC1=O , output reported inhibition.
Resp: -4.4

Req: For COC(=O)c1[nH]c2cc(OC)ccc2c1NC(=O)CCN1CCCCC1 , write its inhibition.
Resp: -14.9

###

target: Furin (Homo sapiens) (UniProt P09958); experiment: furin substrate cleavage inhibition retest – biochemical, fluorescence intensity, confirmation (AID 463180); conditions: Recombinant furin, fluorogenic substrate cleavage, at 50 µM, stronger effect = higher value
# inhibition per entry
Number in %, nothing else.

Req: Name the value of inhibition reported for O=C(CCN1C(=O)c2ccccc2C1=O)N(CCO)Cc1ccccc1 when tested on Furin (Homo sapiens) (UniProt P09958).
Resp: -16.7

###

target: Furin (Homo sapiens); assay: furin substrate cleavage inhibition retest – biochemical, fluorescence intensity, confirmation (AID 463180); conditions: Recombinant furin, fluorogenic substrate cleavage, at 50 µM
The source made the active and inactive calls. The rule behind the calls is not given here.
Respond only with the outcome that fits, drawn from active, inactive

Worked examples follow.
Compound: CCOC(=O)C(C(=O)NCC1CCCO1)C1CCCCC1 (configuration not stated)
Answer label: inactive
//
Compound: CCCCN1CCC(O)(c2ccccc2)C(C(=O)c2ccccc2)C1 (configuration not stated)
Answer label: inactive
//
Compound: N#CC1=C(N)NC(SCc2ccc(Br)cc2)=C(C#N)C12CCCCC2
Answer label: inactive
//
Compound: Cc1ccc(-n2nc3cc(C)c(NC(=O)c4cccnc4)cc3n2)cc1
Answer label: inactive
//
Compound: NC(=O)c1ccccc1N/C=C/C(=O)c1ccc(F)cc1
Answer label: inactive

Req: Name the outcome recorded for CCSc1ccccc1C(=O)Nc1nncs1 in the assay.
Resp: inactive

Req: Field: outcome | Entry: COc1cccc(-n2nnc3c(=O)n(Cc4ccccc4Cl)cnc32)c1
Resp: inactive

Req: Which outcome was entered for the compound CCCC(=O)Nc1cccc(Oc2nc(C)cc(C)c2C#N)c1 in this test?
Resp: inactive

Req: # outcome recorded in this test, key = CSc1nc(N)c(N=Nc2ccc([As](=O)(O)O)cc2)c(=O)[nH]1
Resp: active

Req: // param item: CCC(Sc1ncccc1C(=O)O)C(=O)N1CCCC1 (configuration not stated) ; yields the recorded call
Resp: inactive

Req: For O=C(C1Cc2ccccc2CN1S(=O)(=O)c1cccs1)N1CCCCC1 (configuration not stated) , which call appears in the assay record?
Resp: inactive

Req: Given CCOC(=O)NC(=O)CSc1nnnn1-c1ccccc1 , state the outcome it received in this test.
Resp: inactive

Req: Tell me the recorded outcome of this test for COc1ccc(NC(=O)CSc2nncn2C)cc1OC .
Resp: inactive

Req: Could you check what this test reported for CC1(C)CC(=O)C(C=Nc2cccnc2/N=C/C2=C(O)CC(C)(C)CC2=O)=C(O)C1 ?
Resp: inactive

Req: Given O=C1CC(=C2c3ccccc3-c3ccccc32)C(=O)N1CCCCN1CCN(c2ccccc2)CC1 , state the outcome it received in this test.
Resp: inactive

Req: Identify the outcome logged in this assay for the compound shown: COC(=O)c1ccc(NC2(C#N)C(=O)Nc3ccccc32)cc1 (configuration not stated)
Resp: inactive

Req: Called result for CCN1CCS/C1=C\C=C\C1=[N+](CC)CCS1
Resp: active

Req: Recorded call for Cc1ccc(SCCCCN2C(=O)NC(C)(C)C2=O)cc1 ?
Resp: inactive

Req: Lab log entry: OC(CNCC1CCCO1)Cn1c2ccc(Br)cc2c2cc(Br)ccc21 (configuration not stated) — outcome as called in the assay?
Resp: inactive

Where these numbers come from: PubChem BioAssay AID463180
